Biological target: T1, LNX2_2, Q8N448
T1 sequence (Q8N448 334-432, limits assumed, looked up): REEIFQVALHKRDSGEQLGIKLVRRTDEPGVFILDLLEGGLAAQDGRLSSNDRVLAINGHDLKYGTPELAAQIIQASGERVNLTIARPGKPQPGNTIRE
Test: holdup assay
Set-up: key: below the threshold = too weak to quantify, mostly under pKd 3.1 to 4
Conditions: plain residues with an end cap or a label only (N-terminal biotin on a linker: ahx)
Property: pKd
Reply: number alone, nothing else.

{"Binder": "YNSFLSVTTV [PDZRN3, Q9UPQ7]", "pKd": 4.94}
{"Binder": "HSATSVHTSV [MTMR1, Q13613]", "pKd": 3.96}
{"Binder": "AKPQPVDSWV [ARVCF, O00192]", "pKd": 4.44}

Lab note: next binder to report on.
What pKd value was documented for this binder, KDECVIATEV [DLL1, O00548] ? 4.27
